TARGET: Na,K-ATPase α2β3 isoform complex (Homo sapiens)
ASSAY_METHOD_TEXT: biochemical
# key: entry, value: Ki
State the answer as a number, implicitly in nM.

COMPOUND	UNIT_ANNOTATION	Ki
CC(C)CN1CCC(OC2C(O)CC(OC3C(O)CC(OC4CCC5(C)C(CCC6C5CC(O)C5(C)C(C7=CC(=O)OC7)CCC65O)C4)OC3C)OC2C)OC(C)C1 (centres unmarked)	nM	5.8

Task: Please supply the value of reported Ki for the item CC1CN(C)CCC(OC2C(O)CC(OC3C(O)CC(OC4CCC5(C)C(CCC6C5CC(O)C5(C)C(C7=CC(=O)OC7)CCC65O)C4)OC3C)OC2C)O1 (centres unmarked)
Result: 10.8

Task: Please supply the value of reported Ki for the item CCN1CCC(OC2C(O)CC(OC3C(O)CC(OC4CCC5(C)C(CCC6C5CC(O)C5(C)C(C7=CC(=O)OC7)CCC65O)C4)OC3C)OC2C)OC(C)C1 (centres unmarked)
Result: 14.4

* * *

TARGET: Na,K-ATPase α2β2 isoform complex (Homo sapiens)
ASSAY_METHOD_TEXT: biochemical
OBSERVATION_TYPE: pKi
Scale: negative log10 of molar concentration, which is what pKi denotes.

Below, each entry is followed by its recorded pKi result.
COMPOUND	pKi
CC1CN(CC(F)(F)F)CCC(OC2C(O)CC(OC3C(O)CC(OC4CCC5(C)C(CCC6C5CC(O)C5(C)C(C7=CC(=O)OC7)CCC65O)C4)OC3C)OC2C)O1 (centres unmarked)	7.74
CC1CN(C(C)(C)C)CCC(OC2C(O)CC(OC3C(O)CC(OC4CCC5(C)C(CCC6C5CC(O)C5(C)C(C7=CC(=O)OC7)CCC65O)C4)OC3C)OC2C)O1 (centres unmarked)	7.74

Task: Please supply the value of reported pKi for the item CCN1CCC(OC2C(O)CC(OC3C(O)CC(OC4CCC5(C)C(CCC6C5CC(O)C5(C)C(C7=CC(=O)OC7)CCC65O)C4)OC3C)OC2C)OC(C)C1 (centres unmarked)
Result: 7.79

Task: Please supply the value of reported pKi for the item CC1CN(C)CCC(OC2C(O)CC(OC3C(O)CC(OC4CCC5(C)C(CCC6C5CC(O)C5(C)C(C7=CC(=O)OC7)CCC65O)C4)OC3C)OC2C)O1 (centres unmarked)
Result: 7.69

Task: Please supply the value of reported pKi for the item CC1CN(C[Si](C)(C)C)CCC(OC2C(O)CC(OC3C(O)CC(OC4CCC5(C)C(CCC6C5CC(O)C5(C)C(C7=CC(=O)OC7)CCC65O)C4)OC3C)OC2C)O1 (centres unmarked)
Result: 7.82

Task: Please supply the value of reported pKi for the item CC1CN(C(C)C)CCC(OC2C(O)CC(OC3C(O)CC(OC4CCC5(C)C(CCC6C5CC(O)C5(C)C(C7=CC(=O)OC7)CCC65O)C4)OC3C)OC2C)O1 (centres unmarked)
Result: 7.78

Task: Please supply the value of reported pKi for the item CC(C)CN1CCC(OC2C(O)CC(OC3C(O)CC(OC4CCC5(C)C(CCC6C5CC(O)C5(C)C(C7=CC(=O)OC7)CCC65O)C4)OC3C)OC2C)OC(C)C1 (centres unmarked)
Result: 8.00

Task: Please supply the value of reported pKi for the item CCCN1CCC(OC2C(O)CC(OC3C(O)CC(OC4CCC5(C)C(CCC6C5CC(O)C5(C)C(C7=CC(=O)OC7)CCC65O)C4)OC3C)OC2C)OC(C)C1 (centres unmarked)
Result: 7.98
